Target: human recombinant LPA1 Lysophospholipid receptor (Homo sapiens (Human))
Sequence (Q92633 whole entry): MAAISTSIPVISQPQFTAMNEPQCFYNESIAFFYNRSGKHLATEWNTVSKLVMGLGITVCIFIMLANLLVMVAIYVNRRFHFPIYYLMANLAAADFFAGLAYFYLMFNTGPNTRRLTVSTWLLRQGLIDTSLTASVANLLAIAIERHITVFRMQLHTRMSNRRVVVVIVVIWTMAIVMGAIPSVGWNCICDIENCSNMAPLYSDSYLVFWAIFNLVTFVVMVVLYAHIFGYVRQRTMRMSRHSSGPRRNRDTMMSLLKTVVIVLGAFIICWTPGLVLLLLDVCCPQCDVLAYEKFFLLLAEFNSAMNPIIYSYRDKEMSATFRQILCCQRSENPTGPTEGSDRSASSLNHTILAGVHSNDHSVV
Assay: Calcium flux assay using FLIPR, LPAR1 antagonist activity
Conditions: ChemiScreen stable cell line, antagonist mode, calcium flux
pIC50: −log10 of the molar value.
METRIC: pIC50

C[C@@H](OC(=O)Nc1c(-c2ccc(-c3ccc(C4(C(=O)NS(C)(=O)=O)CC4)cc3)cc2)nnn1C)c1cccc(C(F)(F)F)c1; 7.61
C[C@@H](OC(=O)Nc1c(-c2ccc(-c3ccc(C4(C(=O)NS(C)(=O)=O)CC4)cc3)cc2)nnn1C)c1ccccc1; 7.73
C[C@@H](OC(=O)Nc1c(-c2ccc(-c3ccc(C4(C(=O)O)CC4)cc3)cc2F)nnn1C)c1ccccc1; 7.74

(I) C[C@@H](OC(=O)Nc1c(-c2ccc(-c3ccc(CC(=O)O)cc3)cc2)nnn1C)c1ccccc1
(II) C[C@H](OC(=O)Nc1c(-c2ccc(-c3ccc(C4(C(=O)O)CC4)cc3)cc2)nnn1C)c1cccc(C(F)(F)F)c1
Query :: Determine, for I and II , which has the greater value of pIC50. Returns: label corresponding to the selected item.
Result :: I

(1) C[C@@H](OC(=O)Nc1c(-c2ccc(-c3ccc(C4(C(=O)O)CC4)cc3)cc2)nnn1C)c1ccccc1
(2) C[C@@H](OC(=O)Nc1c(-c2ccc(Br)cc2)nnn1C)c1ccccc1
Query :: Of 1 and 2 , which shows the smaller pIC50 value? Select an item and report its label.
Result :: 2
(2: 4.66, 1: 7.74)

(a) C[C@@H](OC(=O)Nc1c(-c2ccc(-c3ccc(C4(C(=O)O)CC4)cc3)cc2)nnn1C)c1cccc(C(F)(F)F)c1
(b) C[C@@H](OC(=O)Nc1c(-c2ccc(C3CCC(CC(=O)O)CC3)cc2)nnn1C)c1ccccc1 (some centres unmarked)
Query :: Of the two listed items, which has the higher pIC50? First: a Second: b Could you answer with the label of the item you picked?
Result :: a
